- System: A549 cells
- assay.procedure: A549 microarray comparing macrolides with arachidonic acid pathway inhibitors, with IL-1β stimulation (Appendix C, Tables 6-9), and correlation analysis
- Assay type: cell-based
- run.conditions: A549 cells; microarray

# compound, FADS1 expression
records = [
    ("CC[C@H]1OC(=O)[C@H](C)[C@@H](O[C@H]2C[C@@](C)(OC)[C@@H](O)[C@H](C)O2)[C@H](C)[C@@H](O[C@@H]2O[C@H](C)C[C@H](N(C)C)[C@H]2O)[C@](C)(O)C[C@@H](C)/C(=N\\OCOCCOC)[C@H](C)[C@@H](O)[C@]1(C)O [roxithromycin]", "differentially expressed"),
    ("COc1ccc2c(c1)c(CC(=O)O)c(C)n2C(=O)c1ccc(Cl)cc1 [indomethacin]", "not"),
    ("CC[C@H]1OC(=O)[C@H](C)[C@@H](O[C@H]2C[C@@](C)(OC)[C@@H](O)[C@H](C)O2)[C@H](C)[C@@H](O[C@@H]2O[C@H](C)C[C@H](N(C)C)[C@H]2O)[C@](C)(OC)C[C@@H](C)C(=O)[C@H](C)[C@@H](O)[C@]1(C)O [clarithromycin]", "differentially expressed"),
]

---

- assay.procedure: Plasma AUC of clarithromycin after single administration to a normal human subject
- Type: in vivo
- run.conditions: 200 mg singly administered, read-out: plasma AUC0-8
endpoint.label: AUC(0-t) (ng·h/mL)
Use ng·h/mL as the unit, but write only the number.

Which AUC(0-t) value is on record for CC[C@H]1OC(=O)[C@H](C)[C@@H](O[C@H]2C[C@@](C)(OC)[C@@H](O)[C@H](C)O2)[C@H](C)[C@@H](O[C@@H]2O[C@H](C)C[C@H](N(C)C)[C@H]2O)[C@](C)(OC)C[C@@H](C)C(=O)[C@H](C)[C@@H](O)[C@]1(C)O [clarithromycin] ?
8980

---

- assay.procedure: Plasma AUC of clarithromycin after single administration to mice
- Assay type: in vivo
- run.conditions: C57black/6, mouse, oral, 50 mg/kg singly administered, read-out: plasma AUC0-8
endpoint.label: AUC(0-t) (ng·h/mL)
Use ng·h/mL as the unit, but write only the number.

Which AUC(0-t) value is on record for CC[C@H]1OC(=O)[C@H](C)[C@@H](O[C@H]2C[C@@](C)(OC)[C@@H](O)[C@H](C)O2)[C@H](C)[C@@H](O[C@@H]2O[C@H](C)C[C@H](N(C)C)[C@H]2O)[C@](C)(OC)C[C@@H](C)C(=O)[C@H](C)[C@@H](O)[C@]1(C)O [clarithromycin] ?
2680

Every entry's value here was drawn from patent US20070172957A1.
